Each record here notes measured MIC.
test system: Pseudomonas aeruginosa PA01; experiment: Serum MIC, broth micro-dilution; assay type: cell-based; settings: Pseudomonas aeruginosa, PA01; 50% v/v mouse serum in Mueller Hinton II cation adjusted Broth, 35° C., 22 hours; Table 4; read-out: P. aeruginosa 01 Serum MIC
propertyName: MIC (µM)

chemicalString: Cc1nc(-c2ccc(OCCC(C)(C)C)nc2)nc(N)c1C(=O)N[C@@H](CNS(N)(=O)=O)C(=O)N(C)[C@@H]1C(=O)N[C@@H](C)C(=O)N[C@H](C(=O)O)Cc2ccc(OC[C@H](O)CN)c(c2)-c2cc1cc(OC[C@H](O)CN)c2O
endpointResult: 4

chemicalString: Cc1nc(-c2ccc(C(C)(C)C)cc2)ncc1C(=O)N[C@@H](CNS(N)(=O)=O)C(=O)N(C)[C@@H]1C(=O)N[C@@H](C)C(=O)N[C@H](C(=O)O)Cc2ccc(OC[C@H](O)CN)c(c2)-c2cc1cc(OC[C@H](O)CN)c2O
endpointResult: 7
